Test system: PfAP2-EXP AP2 domain (GST-tagged)
assay-details: gcPBM binding intensity (ln(normalized median fluorescence intensity)); higher = stronger DNA binding
Whole data set: some 25,000 sequences, median “ln(normalized median fluorescence intensity)” near 8.6, cut for the highest 2% near 10. For the sample, the highest values were picked, then their nearest neighbours and some sequences at random.
recorded-metric: gcPBM binding intensity (ln)

[[record]]
sequence_content = "AGTATACAGATATATACACACATATATATATATATA [CACACA_site4323]"
target_desc = "PfAP2-EXP AP2 domain (GST-tagged)"
recorded_metric = "gcPBM binding intensity (ln)"
result_value = 10

[[record]]
sequence_content = "CATACATACATACATACACACATACAGATATATATA [CACACA_site4890]"
target_desc = "PfAP2-EXP AP2 domain (GST-tagged)"
recorded_metric = "gcPBM binding intensity (ln)"
result_value = 9.15

[[record]]
sequence_content = "ATATTAAGAATGTATACATGCATATATATATAGTAC [TGCATGCA_site219]"
target_desc = "PfAP2-EXP AP2 domain (GST-tagged)"
recorded_metric = "gcPBM binding intensity (ln)"
result_value = 9.17

[[record]]
sequence_content = "TTAAAAGAAAATAGGTGTACACATAATATATACATA [XGTACX_site7697]"
target_desc = "PfAP2-EXP AP2 domain (GST-tagged)"
recorded_metric = "gcPBM binding intensity (ln)"
result_value = 8.92

[[record]]
sequence_content = "TATATATATATATATACACACATATACATATTGTTT [CACACA_site3499]"
target_desc = "PfAP2-EXP AP2 domain (GST-tagged)"
recorded_metric = "gcPBM binding intensity (ln)"
result_value = 10.2

[[record]]
sequence_content = "GTTGCAATTAACACTAGTACATATAAGTAGTTTATT [XGTACX_site2063]"
target_desc = "PfAP2-EXP AP2 domain (GST-tagged)"
recorded_metric = "gcPBM binding intensity (ln)"
result_value = 8.72

[[record]]
sequence_content = "TATAATCATAAATACACACACATATATATATATATA [CACACA_site5224]"
target_desc = "PfAP2-EXP AP2 domain (GST-tagged)"
recorded_metric = "gcPBM binding intensity (ln)"
result_value = 10.2

[[record]]
sequence_content = "ATTTCCTGGCTACTGTGTACTGACCTCCAGACTGCT [XGTACX_site2005]"
target_desc = "PfAP2-EXP AP2 domain (GST-tagged)"
recorded_metric = "gcPBM binding intensity (ln)"
result_value = 8.81

[[record]]
sequence_content = "TATAAATAAATACATACACACACATACATATATATA [CACACA_site9024]"
target_desc = "PfAP2-EXP AP2 domain (GST-tagged)"
recorded_metric = "gcPBM binding intensity (ln)"
result_value = 8.71

[[record]]
sequence_content = "TGTTGTTACAGATATACACACATATATATATTATAT [CACACA_site5342]"
target_desc = "PfAP2-EXP AP2 domain (GST-tagged)"
recorded_metric = "gcPBM binding intensity (ln)"
result_value = 8.55

[[record]]
sequence_content = "TTTATATGTATTAAGTGTACACATATAATGTATTTT [XGTACX_site16]"
target_desc = "PfAP2-EXP AP2 domain (GST-tagged)"
recorded_metric = "gcPBM binding intensity (ln)"
result_value = 8.71

[[record]]
sequence_content = "ACATTTATTTTGAATGGTACACTATTATTATGAAAT [XGTACX_site4384]"
target_desc = "PfAP2-EXP AP2 domain (GST-tagged)"
recorded_metric = "gcPBM binding intensity (ln)"
result_value = 8.36

[[record]]
sequence_content = "TTTATGTGTATTAAGTGTACACATATAGTGTATTTT [XGTACX_site999]"
target_desc = "PfAP2-EXP AP2 domain (GST-tagged)"
recorded_metric = "gcPBM binding intensity (ln)"
result_value = 8.42

[[record]]
sequence_content = "GCTATAAATATAATCACACATAAATATATAATATAT [CACACA_site5144]"
target_desc = "PfAP2-EXP AP2 domain (GST-tagged)"
recorded_metric = "gcPBM binding intensity (ln)"
result_value = 8.23

[[record]]
sequence_content = "TTTTTAATTTACTGTCATAGGTACCTTAACTTATCA [CACACA_negctrl_site1664]"
target_desc = "PfAP2-EXP AP2 domain (GST-tagged)"
recorded_metric = "gcPBM binding intensity (ln)"
result_value = 8.72

[[record]]
sequence_content = "CACAGATATATACATACACACATATATACACATATA [CACACA_site6323]"
target_desc = "PfAP2-EXP AP2 domain (GST-tagged)"
recorded_metric = "gcPBM binding intensity (ln)"
result_value = 8.58

[[record]]
sequence_content = "ATTATTATATAGTGTGCATGCAATATTAATAAAACC [TGCATGCA_site245]"
target_desc = "PfAP2-EXP AP2 domain (GST-tagged)"
recorded_metric = "gcPBM binding intensity (ln)"
result_value = 10.3

[[record]]
sequence_content = "GTTATATTTAAAATAGTGCAATAAAAATAATAATAT"
target_desc = "PfAP2-EXP AP2 domain (GST-tagged)"
recorded_metric = "gcPBM binding intensity (ln)"
result_value = 8.89

[[record]]
sequence_content = "GTTACATACAGATACACACACATATATATATATATA [CACACA_site4652]"
target_desc = "PfAP2-EXP AP2 domain (GST-tagged)"
recorded_metric = "gcPBM binding intensity (ln)"
result_value = 10.2

[[record]]
sequence_content = "TATAATATATATTTGTGTCCACAACATTTTTAATAT [XGTACX_site2089]"
target_desc = "PfAP2-EXP AP2 domain (GST-tagged)"
recorded_metric = "gcPBM binding intensity (ln)"
result_value = 8.56


Reference source for all entries: the supplement of paper PMC11417369
